Target: T1, Peptide-18 (cysteine pairing not given here; also: biotinylated (site not given here))
T1 peptide: MDFCQIYDWPICRL
Test: ELISA, Fab on captured biotin-peptide
Where no end group is shown, it is not given here.
Form field: EC50 (one value per entry).
REPORTED METRIC: EC50

[
  {
    "BINDER": "TBD-1 wt (Fab, V domains shown, Fab; the heavy chain entry is VH-CH1; also called wild-type anti-TROP2 Fab (hRS7); TROP2 Fab) VH: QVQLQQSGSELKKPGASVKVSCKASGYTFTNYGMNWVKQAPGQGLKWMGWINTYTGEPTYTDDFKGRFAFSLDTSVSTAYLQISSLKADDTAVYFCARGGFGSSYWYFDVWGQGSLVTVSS VL: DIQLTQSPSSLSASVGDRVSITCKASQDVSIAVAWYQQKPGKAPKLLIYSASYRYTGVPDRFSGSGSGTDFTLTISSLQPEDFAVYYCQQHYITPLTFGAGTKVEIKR",
    "REPORTED VALUE": "474 nM"
  },
  {
    "BINDER": "TBD-6 (LC I93A) (Fab, V domains shown, Fab; also called LC I93A mutant) VH: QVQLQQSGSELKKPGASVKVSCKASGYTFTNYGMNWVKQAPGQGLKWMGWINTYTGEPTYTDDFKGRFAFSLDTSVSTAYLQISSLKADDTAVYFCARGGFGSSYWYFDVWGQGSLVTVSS VL: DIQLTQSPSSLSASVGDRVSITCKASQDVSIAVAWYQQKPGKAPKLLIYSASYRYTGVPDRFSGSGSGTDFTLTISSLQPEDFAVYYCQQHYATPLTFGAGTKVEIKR",
    "REPORTED VALUE": "83.2 nM"
  },
  {
    "BINDER": "TBD-22 (HC D109A) (Fab, V domains shown, Fab; also called HC D109A mutant) VH: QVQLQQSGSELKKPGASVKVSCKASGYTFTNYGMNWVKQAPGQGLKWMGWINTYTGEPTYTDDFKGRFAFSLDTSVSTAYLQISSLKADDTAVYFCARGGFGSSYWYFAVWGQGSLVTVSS VL: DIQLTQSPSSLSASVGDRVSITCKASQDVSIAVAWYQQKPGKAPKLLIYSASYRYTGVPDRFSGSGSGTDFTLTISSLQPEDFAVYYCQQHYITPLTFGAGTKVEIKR",
    "REPORTED VALUE": "7.8 nM"
  }
]
